A collection of compounds and their measured Ratio Ki
# system under test: Thrombin and coagulation factor VII (Homo sapiens) (UniProt P00734+P08709)
# measurement description: Selectivity for F7a/TF over F2a
# Type: protein assay
API doc: respond with a numeric literal and nothing else, no unit.

>  <compound>
O=C(NCc1cccc(-c2cccc(-c3cc4c[nH]ccc-4n3)c2O)c1)Nc1ccc(F)cc1

>  <system under test>
Thrombin and coagulation factor VII (Homo sapiens) (UniProt P00734+P08709)

>  <Ratio Ki>
1360

$$$$
>  <compound>
O=C(NCc1cccc(-c2cccc(-c3cc4c[nH]ccc-4n3)c2O)c1)Nc1cccs1

>  <system under test>
Thrombin and coagulation factor VII (Homo sapiens) (UniProt P00734+P08709)

>  <Ratio Ki>
938

$$$$
>  <compound>
O=C(NCc1cccc(-c2cccc(-c3cc4c[nH]ccc-4n3)c2O)c1)C(CO)c1cccnc1 (centres undefined)

>  <system under test>
Thrombin and coagulation factor VII (Homo sapiens) (UniProt P00734+P08709)

>  <Ratio Ki>
107

$$$$

# ---- query compound ----
Per the records, this compound ( COc1ccccc1NC(=O)NCc1cccc(-c2cccc(-c3cc4c[nH]ccc-4n3)c2O)c1 ) has Ratio Ki equal to 3190
